Entry source: PubChem BioAssay (NCI)

Provide the recorded TGI for the entries that follow.
Tested on: SK-MEL-5 melanoma
Test Protocol: NCI tumour cell line growth inhibition, 48 h

Prompt: # value lookup — system SK-MEL-5 melanoma, readout TGI, item O=[N+]([O-])c1ccc2c(c1)c(N=NC(=S)NC1CCCCC1)c(O)n2CN1CCOCC1
Completion: 11.3 µM

Prompt: Param readout = TGI; param system = SK-MEL-5 melanoma; param query = O=C1C2=Cc3ccccc3OC2(O)Oc2cc(O)ccc21 (stereo not given) ; response: value
Completion: > 100 µM

Prompt: Find the measured TGI: item Cc1n[nH]c(=S)n1/N=C/c1ccc(F)c(Oc2ccccc2)c1 , target or system SK-MEL-5 melanoma.
Completion: 33.4 µM

Prompt: Missing value: TGI, SK-MEL-5 melanoma, entry O=C1c2cc3c(cc2-c2c1c1ccc(Cl)cc1c(=O)n2C[C@H](O)[C@@H](O)[C@H](O)CO)OCO3 . Fill in?
Completion: 0.0701 µM

Prompt: # value lookup — system SK-MEL-5 melanoma, readout TGI, item Cn1c(=O)c2c(no[n+]2[O-])n(C)c1=O
Completion: > 100 µM
